From: ChEMBL document CHEMBL3632562

TESTED_SYSTEM: Nuclear receptor subfamily 1 group I member 2 (Homo sapiens, UniProt O75469)
Sequence (O75469 whole entry): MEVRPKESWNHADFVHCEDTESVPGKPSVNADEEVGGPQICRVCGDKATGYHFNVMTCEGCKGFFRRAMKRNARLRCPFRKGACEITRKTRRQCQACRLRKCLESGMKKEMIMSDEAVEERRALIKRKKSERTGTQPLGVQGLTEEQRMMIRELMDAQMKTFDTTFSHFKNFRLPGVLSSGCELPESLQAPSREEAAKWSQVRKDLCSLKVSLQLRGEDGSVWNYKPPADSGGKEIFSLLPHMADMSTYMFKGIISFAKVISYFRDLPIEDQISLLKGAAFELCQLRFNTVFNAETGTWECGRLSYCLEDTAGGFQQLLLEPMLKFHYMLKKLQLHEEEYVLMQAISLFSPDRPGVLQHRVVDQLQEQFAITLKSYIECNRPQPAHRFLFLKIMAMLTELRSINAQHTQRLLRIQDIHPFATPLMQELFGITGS
EXPERIMENT_SUMMARY: Transactivation of full length human PXR transfected in human HepG2 cells after 18 hrs by luciferase reporter assay relative to rifaximin
Type: cell-based
QUANTITY_MEASURED: EC50 (µM)
Just the number please, in µM, no unit attached.

Req: Could you please provide reported EC50 for CC/C(=C(/CC)c1ccc(OC)cc1)c1ccc(OC)cc1 ? Thanks!
Resp: 10.5

Now, please, on to the next compound.
Req: Dear colleague, please send me the reported EC50 for CO[C@H]1/C=C/O[C@@]2(C)Oc3c(C)c(O)c4c(O)c(c5c(nc6cc(C)ccn65)c4c3C2=O)NC(=O)/C(C)=C\C=C\[C@H](C)[C@H](O)[C@@H](C)[C@@H](O)[C@@H](C)[C@H](OC(C)=O)[C@@H]1C when you can.
Resp: 11.2

* * *

TESTED_SYSTEM: Nuclear receptor subfamily 1 group I member 2 (Homo sapiens)
EXPERIMENT_SUMMARY: Antagonist activity at PXR (unknown origin)
QUANTITY_MEASURED: IC50

Req: Return IC50 for the following compound: Cc1cc(-c2onc(C)c2C(=O)Sc2ccccc2)no1
Resp: 850 nM

* * *

# pIC50 per entry
TESTED_SYSTEM: Nuclear receptor subfamily 1 group I member 2 (Homo sapiens, UniProt O75469)
EXPERIMENT_SUMMARY: Antagonist activity at full length human PXR transfected in human HepG2 cells assessed as reduction in rifaximin-induced receptor transactivation after 18 hrs by luciferase reporter assay
Assay type: cell-based
pIC50 (log units): -log10 of the concentration in mol/L.

Req: Please report pIC50 with Nuclear receptor subfamily 1 group I member 2 (Homo sapiens, UniProt O75469) for item CC/C(=C(/CC)c1ccc(O)cc1)c1ccc(O)cc1 .
Resp: 4.84

Req: # return pIC50 for CC/C(=C(/CC)c1ccc(OCCO)cc1)c1ccc(OCCO)cc1 , test system: Nuclear receptor subfamily 1 group I member 2 (Homo sapiens, UniProt O75469)
Resp: 4.56

* * *

TESTED_SYSTEM: Nuclear receptor subfamily 1 group I member 2 (Homo sapiens, UniProt O75469)
EXPERIMENT_SUMMARY: Antagonist activity at full length human PXR transfected in human HepG2 cells assessed as reduction in rifaximin-induced receptor transactivation at 50 uM after 18 hrs by luciferase reporter assay
Format: cell-based
TEST_PARAMETERS: hepg2, 18 h
QUANTITY_MEASURED: inhibition (INH)

Req: Identify the reported inhibition (INH) for the following entry. CC/C(=C(/CC)c1ccc(OCCOS(=O)(=O)[O-])cc1)c1ccc(OCCOS(=O)(=O)[O-])cc1.[Na+].[Na+]
Resp: Not Active

Req: Report inhibition (INH) for CC/C(=C(/CC)c1ccc(OCCO)cc1)c1ccc(OCCO)cc1
Resp: Active

Req: Retrieve inhibition (INH) measured for CC/C(=C(/CC)c1ccc(OCCCOS(=O)(=O)[O-])cc1)c1ccc(OCCCOS(=O)(=O)[O-])cc1.[Na+].[Na+] and print it.
Resp: Not Active

Req: Complete the entry with inhibition (INH) for CC/C(=C(/CC)c1ccc(OCCCOC(C)=O)cc1)c1ccc(OCCCOC(C)=O)cc1
Resp: Active

Req: Supply recorded inhibition (INH) for CC/C(=C(/CC)c1ccc(OCCOC(C)=O)cc1)c1ccc(OCCOC(C)=O)cc1 here.
Resp: Active

Req: Provide only the value of recorded inhibition (INH) for CC/C(=C(/CC)c1ccc(O)cc1)c1ccc(O)cc1
Resp: Active

Req: Give inhibition (INH) for CC/C(=C(/CC)c1ccc(OS(=O)(=O)[O-])cc1)c1ccc(OS(=O)(=O)[O-])cc1.[Na+].[Na+]
Resp: Not Active

Here is another compound to look at.
Req: Name the recorded inhibition (INH) of the compound listed here: CC/C(=C(/CC)c1ccc(OCCCCOS(=O)(=O)[O-])cc1)c1ccc(OCCCCOS(=O)(=O)[O-])cc1.[Na+].[Na+]
Resp: Not Active
